Measured values drawn from paper PMC7142633 for this set.

Consider the following molecules and their measured pKi readings.
molecular target: α-amylase from porcine pancreas (Sus scrofa, UniProt P00690); construct: A saline suspension of α-amylase from porcine pancreas; purchased Sigma Aldrich (Steinheim, Germany) Lot #SLBN9170V (catalogue number not given); host or cells: porcine pancreas (tissue-derived); experiment: α-amylase enzyme activity assay, GalG2CNP conversion, UV/Vis detection of CNP at 405 nm; type: biochemical; conditions: from apparent values; inhibitor c 25 µM; read-out: Kic
pKi: −log10 of the molar value.
Recorded Endpoint: pKi

> print(dat)
                                   molecule  recorded.endpoint  measured.result
1  COc1cc(-c2[o+]c3cc(O)cc(O)c3cc2O[C@@H]2O[C@H](CO)[C@@H](O)[C@H](O)[C@H]2O)ccc1O [Peo-glc, peonidin-3-glucoside]                pKi             3.97
2  OC[C@H]1O[C@@H](Oc2cc3c(O)cc(O)cc3[o+]c2-c2ccc(O)c(O)c2)[C@H](O)[C@@H](O)[C@@H]1O [Cyd-glc, cyanidin-3-glucoside]                pKi             4.19
3  OC[C@H]1O[C@@H](Oc2cc3c(O)cc(O)cc3[o+]c2-c2cc(O)c(O)c(O)c2)[C@H](O)[C@@H](O)[C@@H]1O [Dpd-glc, delphinidin-3-glucoside]                pKi             4.20
4  OC[C@H]1O[C@@H](Oc2cc3c(O)cc(O)cc3[o+]c2-c2ccc(O)cc2)[C@H](O)[C@@H](O)[C@@H]1O [Plg-glc, pelargonidin-3-glucoside]                pKi             4.21

----------
Target: α-amylase from porcine pancreas (Sus scrofa)
Construct: A saline suspension of α-amylase from porcine pancreas; purchased Sigma Aldrich (Steinheim, Germany) Lot #SLBN9170V (catalogue number not given); host or cells: porcine pancreas (tissue-derived)
Sequence (P00690 16-511): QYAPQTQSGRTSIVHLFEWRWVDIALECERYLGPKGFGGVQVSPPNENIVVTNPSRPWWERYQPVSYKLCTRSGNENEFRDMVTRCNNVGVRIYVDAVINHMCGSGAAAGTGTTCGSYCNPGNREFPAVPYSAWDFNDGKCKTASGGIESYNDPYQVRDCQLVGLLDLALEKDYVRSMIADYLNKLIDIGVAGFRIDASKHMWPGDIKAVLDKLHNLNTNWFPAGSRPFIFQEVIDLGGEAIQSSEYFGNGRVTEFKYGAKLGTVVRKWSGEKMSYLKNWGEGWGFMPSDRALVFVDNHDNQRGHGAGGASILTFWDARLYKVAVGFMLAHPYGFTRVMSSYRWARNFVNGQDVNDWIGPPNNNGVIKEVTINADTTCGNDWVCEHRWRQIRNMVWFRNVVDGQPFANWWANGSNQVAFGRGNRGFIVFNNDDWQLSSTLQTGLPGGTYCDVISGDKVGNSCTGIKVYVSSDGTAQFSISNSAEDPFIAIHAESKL
Experiment: α-amylase enzyme activity assay, GalG2CNP conversion, UV/Vis detection of CNP at 405 nm
Type: biochemical
Settings: (ii) independent Michaelis Menten fit (Equation (6)), calculation by Equation (7); read-out: Kic
Recorded Endpoint: Ki (µM)

> print(dat)
                                   compound  units.symbol  measured.result
1  OC[C@H]1O[C@@H](Oc2cc3c(O)cc(O)cc3[o+]c2-c2ccc(O)c(O)c2)[C@H](O)[C@@H](O)[C@@H]1O [Cyd-glc, cyanidin-3-glucoside]            µM              134
2  OC[C@H]1O[C@@H](Oc2cc3c(O)cc(O)cc3[o+]c2-c2cc(O)c(O)c(O)c2)[C@H](O)[C@@H](O)[C@@H]1O [Dpd-glc, delphinidin-3-glucoside]            µM               63
3  OC[C@H]1O[C@@H](Oc2cc3c(O)cc(O)cc3[o+]c2-c2ccc(O)cc2)[C@H](O)[C@@H](O)[C@@H]1O [Plg-glc, pelargonidin-3-glucoside]            µM               69
4  COc1cc(-c2[o+]c3cc(O)cc(O)c3cc2O[C@@H]2O[C@H](CO)[C@@H](O)[C@H](O)[C@H]2O)ccc1O [Peo-glc, peonidin-3-glucoside]            µM              118

----------
target: α-amylase from porcine pancreas (Sus scrofa, UniProt P00690); construct: A saline suspension of α-amylase from porcine pancreas; purchased Sigma Aldrich (Steinheim, Germany) Lot #SLBN9170V (catalogue number not given); host or cells: porcine pancreas (tissue-derived); test: α-amylase enzyme activity assay, GalG2CNP conversion, UV/Vis detection of CNP at 405 nm; assay type: biochemical; settings: (i) Kic and Kiu by global fit; [S] 100 µM; read-out: IC50 (Cheng−Prussoff, Equation (9))
pIC50: −log10 of the molar value.
Recorded Endpoint: pIC50

> print(dat)
                                   compound  recorded.endpoint  measured.result
1  COc1cc(-c2[o+]c3cc(O)cc(O)c3cc2O[C@@H]2O[C@H](CO)[C@@H](O)[C@H](O)[C@H]2O)ccc1O [Peo-glc, peonidin-3-glucoside]              pIC50             3.87
2  OC[C@H]1O[C@@H](Oc2cc3c(O)cc(O)cc3[o+]c2-c2cc(O)c(O)c(O)c2)[C@H](O)[C@@H](O)[C@@H]1O [Dpd-glc, delphinidin-3-glucoside]              pIC50             4.11
3  OC[C@H]1O[C@@H](Oc2cc3c(O)cc(O)cc3[o+]c2-c2ccc(O)c(O)c2)[C@H](O)[C@@H](O)[C@@H]1O [Cyd-glc, cyanidin-3-glucoside]              pIC50             4.01
4  OC[C@H]1O[C@@H](Oc2cc3c(O)cc(O)cc3[o+]c2-c2ccc(O)cc2)[C@H](O)[C@@H](O)[C@@H]1O [Plg-glc, pelargonidin-3-glucoside]              pIC50             4.15

----------
Target: α-amylase from porcine pancreas (Sus scrofa)
Construct: A saline suspension of α-amylase from porcine pancreas; purchased Sigma Aldrich (Steinheim, Germany) Lot #SLBN9170V (catalogue number not given); host or cells: porcine pancreas (tissue-derived)
Sequence (P00690 16-511): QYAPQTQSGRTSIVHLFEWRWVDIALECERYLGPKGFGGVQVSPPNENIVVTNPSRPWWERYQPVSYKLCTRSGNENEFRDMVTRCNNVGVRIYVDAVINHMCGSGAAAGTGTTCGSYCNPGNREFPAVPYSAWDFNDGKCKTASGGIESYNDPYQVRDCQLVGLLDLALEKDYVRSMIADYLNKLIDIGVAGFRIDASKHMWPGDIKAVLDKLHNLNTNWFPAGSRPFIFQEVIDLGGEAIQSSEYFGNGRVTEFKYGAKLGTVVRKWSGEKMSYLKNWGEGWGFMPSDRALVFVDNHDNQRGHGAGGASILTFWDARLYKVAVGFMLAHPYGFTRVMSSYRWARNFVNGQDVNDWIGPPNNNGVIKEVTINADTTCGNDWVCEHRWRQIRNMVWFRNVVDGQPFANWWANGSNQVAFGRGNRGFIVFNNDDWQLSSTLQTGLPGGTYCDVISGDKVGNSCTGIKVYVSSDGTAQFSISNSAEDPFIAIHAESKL
Assay: α-amylase enzyme activity assay, GalG2CNP conversion, UV/Vis detection of CNP at 405 nm
Format: biochemical
Conditions: (ii) independent Michaelis Menten fit (Equation (6)), calculation by Equation (8); read-out: Kiu
pKi: −log10 of the molar value.
Consider the following compounds and their measured pKi readings.
Recorded Endpoint: pKi

> print(dat)
                                   compound                               test.target  measured.result
1  COc1cc(-c2[o+]c3cc(O)cc(O)c3cc2O[C@@H]2O[C@H](CO)[C@@H](O)[C@H](O)[C@H]2O)ccc1O [Peo-glc, peonidin-3-glucoside]  α-amylase from porcine pancreas (Sus scrofa)             3.60
2  OC[C@H]1O[C@@H](Oc2cc3c(O)cc(O)cc3[o+]c2-c2ccc(O)c(O)c2)[C@H](O)[C@@H](O)[C@@H]1O [Cyd-glc, cyanidin-3-glucoside]  α-amylase from porcine pancreas (Sus scrofa)             3.64
3  OC[C@H]1O[C@@H](Oc2cc3c(O)cc(O)cc3[o+]c2-c2ccc(O)cc2)[C@H](O)[C@@H](O)[C@@H]1O [Plg-glc, pelargonidin-3-glucoside]  α-amylase from porcine pancreas (Sus scrofa)             3.80
4  OC[C@H]1O[C@@H](Oc2cc3c(O)cc(O)cc3[o+]c2-c2cc(O)c(O)c(O)c2)[C@H](O)[C@@H](O)[C@@H]1O [Dpd-glc, delphinidin-3-glucoside]  α-amylase from porcine pancreas (Sus scrofa)             3.57
